test: Pharmacokinetics of SR13668 in dogs after i.v. and oral gavage dosing; format: in vivo, beagle dogs; settings: male, beagle, dog, whole blood, po, 4.68 mg/kg, dogs, whole blood; 93.6 mg/m^2 (4.68 mg/kg) oral gavage, Solutol, seventh daily dose; fed; read-out: VZ/F
property_label: Vd/F (L/kg)

compound | property_label | value
CCOC(=O)c1ccc2[nH]c3c(OC)c4[nH]c5ccc(C(=O)OCC)cc5c4cc3c2c1 [SR13668] | Vd/F | 12.8

* * *

assay: Solubility of SR13668 in various solvents; type: physicochemical; details: 65 °C, organic solvent or mixture, thermodynamic from solid; PEG-400 New; 65-70 ° C.; UV
property_label: solubility (µg/mL)

given_smiles | value
CCOC(=O)c1ccc2[nH]c3c(OC)c4[nH]c5ccc(C(=O)OCC)cc5c4cc3c2c1 | 7600
